experiment: Human HepG2 cell viability assay in 384 well format; format: toxicity, cell-based; set-up: dose 125 nL, time 70.5 hour; concentration not given beside the values; conditions: HepG2 cells, read-out: Inhibition
MEASUREMENT_TYPE: cytotoxicity at 70.5 h
Reply with the number and its unit after it.

- COMPOUND: "CNc1ccc(CC2CCCN(C(=O)c3cnc(C)nc3)C2)nn1 (centres undefined)"
  VALUE_REPORTED: "-6.58%"

Returns the measured cytotoxicity at 70.5 h for the input compound. Input: COc1cccc(CN(C)C(C)c2nccs2)c1OCCn1ccnc1 (centres undefined) -3.88%

May I ask what cytotoxicity at 70.5 h has been recorded for Cc1cc(C(=O)N2CCC(N3CCNC3=O)CC2)nn1C(C)(C)C ? -16.5%

Would you kindly share the measured cytotoxicity at 70.5 h for Cc1nncn1CCNC(=O)C(C)(C)c1cccc(F)c1 ? -7.47%

This collection of values is drawn from ChEMBL document CHEMBL3507680.
